System: SARS-CoV-2 (USA-WA1/2020) in Calu-3 cells
Type: cell-based
reported.conditions: low dose (100 nM), Calu-3, 48 h
Listed next: entries and their corresponding dsRNA signal, AU Low.
// return numeric value only (unit: AU, not printed)

Query: Entry under review: O=c1c(-c2ccc(O)cc2)coc2cc(O)cc(O)c12 [Genistein, reference compound] . Reported dsRNA signal, AU Low?
Response: 19461.3

Query: Entry under review: CCc1ccc(C(=O)COc2ccc(CC3SC(=O)NC3=O)cc2)nc1 (stereo not drawn) . Reported dsRNA signal, AU Low?
Response: 15455.5

Query: Entry under review: Cc1cc(C)nc(NS(=O)(=O)c2ccc(NC(=S)NC(=O)COc3ccc(Br)cc3Cl)cc2)n1 . Reported dsRNA signal, AU Low?
Response: 41590.0

Query: Entry under review: O=C(O)[C@H]1O[C@@H](Oc2cc3oc(-c4ccc(O)cc4)cc(=O)c3c(O)c2O)[C@H](O)[C@@H](O)[C@@H]1O . Reported dsRNA signal, AU Low?
Response: 52840.4

Query: Entry under review: CCOC(=O)C1=C[C@]2(CC)CCCN3CCc4c(n1c1ccccc41)[C@@H]32 . Reported dsRNA signal, AU Low?
Response: 19993.1

Query: Entry under review: CCCCCCCCCCCCCCCCOP(=O)([O-])OCC[N+](C)(C)C . Reported dsRNA signal, AU Low?
Response: 36330.6

Query: Entry under review: O=C(O)[C@]1(Cc2cccc(Nc3nccs3)n2)CC[C@@H](Oc2cccc(Cl)c2F)CC1 . Reported dsRNA signal, AU Low?
Response: 34308.8

Query: Entry under review: O=C(O)C(Cc1ccccc1[N+](=O)[O-])=NNc1nc(-c2ccc(Cl)c(Cl)c2)cs1 (mixture of isomers) . Reported dsRNA signal, AU Low?
Response: 17726.3

Query: Entry under review: COc1ccc(S(=O)(=O)Nc2ccccc2CN(C)C/C=C/c2ccc(Cl)cc2)cc1.O=P(O)(O)O [KN-92 phosphate] . Reported dsRNA signal, AU Low?
Response: 16946.8

Query: Entry under review: CC(C)NC[C@@H](C(=O)N1CCN(c2ncnc3c2[C@H](C)C[C@H]3O)CC1)c1ccc(Cl)cc1 [GDC-0068, reference compound] . Reported dsRNA signal, AU Low?
Response: 18551.4

Query: Entry under review: O=C1NC(=O)/C(=C/c2ccc3nccc(-c4ccncc4)c3c2)S1 . Reported dsRNA signal, AU Low?
Response: 16639.6

---

Test system: SARS-CoV-2 (USA-WA1/2020) in Calu-3 cells
protocol.details: microbe, parasite or virus in culture
Assay type: cell-based
reported.conditions: Severe acute respiratory syndrome coronavirus 2, Calu-3, 48 h; […]; above 30 μM reported as >30; read-out: EC50 (μM) dsRNA
Listed next: entries and their corresponding EC50.
// return numeric value only (unit: µM, not printed)

In the examples that follow, each entry is paired with its recorded EC50.
[
  {
    "chemical.smiles": "CC(C)c1cc(CNc2nc(Nc3cc(C4CC4)[nH]n3)cc(N3CCN(C)CC3)n2)on1",
    "measured.attribute": "EC50",
    "value.reported": 0.0745
  },
  {
    "chemical.smiles": "N#CCNC(=O)c1ccc(-c2ccnc(Nc3ccc(N4CCOCC4)cc3)n2)cc1",
    "measured.attribute": "EC50",
    "value.reported": 0.0276
  },
  {
    "chemical.smiles": "O=C(NC1CCNCC1)c1[nH]ncc1NC(=O)c1c(Cl)cccc1Cl",
    "measured.attribute": "EC50",
    "value.reported": 1.23
  },
  {
    "chemical.smiles": "CC(C)n1nc(-c2ccc3oc(N)nc3c2)c2c(N)ncnc21",
    "measured.attribute": "EC50",
    "value.reported": 0.213
  }
]

Consider now this further compound.
Query: Entry under review: CC1(C)OCCn2c1nc1c(N3CCOCC3)nc(-c3cnc(N)nc3)nc12 . Reported EC50?
Response: 1.5

Origin of values: paper PMC12142043
